Listed below: pIC50 values for each entry.
# Test system: Human peripheral blood mononuclear cells
# test description: Human Concanavalin-A Proliferation Assay (Con HU Assay)
# Assay type: cell-based
# particulars: Homo sapiens, PBMC, concanavalin-A stimulated human PBMC, tritiated thymidine
Conceptually, pIC50 converts a concentration in mol/L into minus its log10.

Cc1nc(C)c(C(=O)Nc2ccc(-n3nc(C(F)(F)F)cc3C(F)(F)F)cc2)s1	6.41

Task: Entry under review: O=C(Nc1ccc(-n2nc(C(F)(F)F)cc2C(F)(F)F)cc1)c1ccc(Cl)cc1[N+](=O)[O-] . Reported pIC50?
Output: 6.80

Task: Subsequent entry: O=C(Nc1ccc(-n2nc(C(F)(F)F)cc2C(F)(F)F)cc1)c1cc(F)c(F)cc1Cl
Output: 7.03

Task: O=C(Nc1ccc(-n2nc(C(F)(F)F)cc2C(F)(F)F)cc1)c1ccc(F)c(Cl)c1 , same question.
Output: 6.62

These entries and their values trace back to patent US20010044445A1.
